The measurements presented in this section are drawn from ChEMBL document CHEMBL3603752.

target: Nuclear receptor ROR-gamma (Homo sapiens, UniProt P51449); experiment: Inverse agonist activity at APC-labeled RORgammat-LBD (unknown origin) assessed as inhibition of N-(2-chloro-6-fluorobenzyl)-N-((2'-methoxy-[1,1'-biphenyl]-4-yl)-methyl)benzenesulfonamide-induced europium-labeled SRC1 recruitment after 1 hr by FRET analysis
Sequence (P51449 whole entry, the tested form may be a part): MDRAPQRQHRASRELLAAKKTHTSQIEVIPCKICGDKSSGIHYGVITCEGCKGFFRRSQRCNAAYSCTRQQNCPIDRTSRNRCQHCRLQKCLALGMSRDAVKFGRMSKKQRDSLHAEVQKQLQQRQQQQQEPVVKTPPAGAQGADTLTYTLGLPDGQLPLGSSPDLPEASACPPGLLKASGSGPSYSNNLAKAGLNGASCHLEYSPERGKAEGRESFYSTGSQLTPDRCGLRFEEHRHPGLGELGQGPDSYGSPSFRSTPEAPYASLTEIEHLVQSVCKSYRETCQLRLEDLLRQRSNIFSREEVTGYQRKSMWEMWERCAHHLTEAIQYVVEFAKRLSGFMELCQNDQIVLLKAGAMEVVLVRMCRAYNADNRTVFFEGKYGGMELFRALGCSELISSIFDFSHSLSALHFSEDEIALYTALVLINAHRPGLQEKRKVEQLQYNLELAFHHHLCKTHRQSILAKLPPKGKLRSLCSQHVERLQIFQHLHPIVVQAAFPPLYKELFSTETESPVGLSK
value-type: IC50
Mention the unit after the number when you answer.

Request: Recall and state the measured IC50 for CCS(=O)(=O)c1ccc(CC(=O)Nc2nc(-c3cc(Cl)ccc3Cl)c(-c3ccccc3)s2)cc1 .
Response: 158 nM

----------
test system: Liver; experiment: Intrinsic clearance in mouse liver microsomes at 0.5 microM by LC/MS/MS analysis; type: ADME
value-type: CLH

CCS(=O)(=O)c1ccc(CC(=O)Nc2nc(-c3ccccc3)c(Oc3ccccc3C(F)(F)F)s2)cc1: < 0.36 mL/min/g
CCS(=O)(=O)c1ccc(CC(=O)Nc2nc(-c3ccccc3)c(Oc3ccccc3Cl)s2)cc1: 0.46 mL/min/g
CCS(=O)(=O)c1ccc(CC(=O)Nc2nc(-c3cccc(C#N)c3)c(Oc3ccc(Cl)cc3C(F)(F)F)s2)cc1: < 0.36 mL/min/g
CCS(=O)(=O)c1ccc(CC(=O)Nc2nc(-c3ccc(Cl)cc3)c(Oc3ccccc3)s2)cc1: < 0.36 mL/min/g

Parameter requested: CLH. Apply to each item below.
1. CCS(=O)(=O)c1ccc(CC(=O)Nc2nc(-c3cccc(C#N)c3)c(Oc3ccccc3C(F)(F)F)s2)cc1
2. CCS(=O)(=O)c1ccc(CC(=O)Nc2nc(-c3cccc(Cl)c3)c(Oc3ccccc3C(F)(F)F)s2)cc1
3. CCS(=O)(=O)c1ccc(CC(=O)Nc2nc(-c3ccccc3)c(Oc3ccc(C(F)(F)F)cc3)s2)cc1
4. CCS(=O)(=O)c1ccc(CC(=O)Nc2nc(-c3cccc(C#N)c3)c(Oc3ccc(C(F)(F)F)cc3Cl)s2)cc1
5. CCS(=O)(=O)c1ccc(CC(=O)Nc2nc(-c3ccccc3)c(Oc3ccccc3OC)s2)cc1
6. CCS(=O)(=O)c1ccc(CC(=O)Nc2nc(-c3ccccc3)c(Oc3ccc(OC)cc3)s2)cc1
7. CCS(=O)(=O)c1ccc(CC(=O)Nc2nc(-c3ccccc3)c(Oc3ccc(Cl)cc3)s2)cc1

Response:
1: < 0.36 mL/min/g; 2: < 0.36 mL/min/g; 3: < 0.36 mL/min/g; 4: < 0.36 mL/min/g; 5: 2.37 mL/min/g; 6: 0.39 mL/min/g; 7: < 0.36 mL/min/g

----------
Exercise: state measured pIC50 for each of the molecules provided.
Target: UniProt:P51450
Sequence (P51450 whole entry): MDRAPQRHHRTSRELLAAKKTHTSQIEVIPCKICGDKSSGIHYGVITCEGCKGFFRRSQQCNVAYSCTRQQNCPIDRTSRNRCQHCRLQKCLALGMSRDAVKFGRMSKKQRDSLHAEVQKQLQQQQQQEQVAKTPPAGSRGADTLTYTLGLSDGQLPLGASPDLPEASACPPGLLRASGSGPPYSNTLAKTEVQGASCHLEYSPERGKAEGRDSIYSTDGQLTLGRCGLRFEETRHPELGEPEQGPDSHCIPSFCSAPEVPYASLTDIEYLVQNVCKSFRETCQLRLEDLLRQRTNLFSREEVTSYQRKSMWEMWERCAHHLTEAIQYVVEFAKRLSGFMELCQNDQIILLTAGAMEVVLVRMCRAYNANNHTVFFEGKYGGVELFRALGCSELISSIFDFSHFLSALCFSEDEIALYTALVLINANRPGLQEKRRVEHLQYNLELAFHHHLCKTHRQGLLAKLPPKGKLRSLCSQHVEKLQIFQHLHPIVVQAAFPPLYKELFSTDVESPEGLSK
Assay: Inverse agonist activity at RORgammat in mouse Th17 cells assessed as inhibition of IL-17 production after 3 days by ELISA
Give bare numbers, as −log10 of the molar value.

Return reported pIC50 values for all items listed beneath this line.
1. CCS(=O)(=O)c1ccc(CC(=O)Nc2nc(-c3cccc(Cl)c3)c(Oc3ccccc3C(F)(F)F)s2)cc1
2. CCS(=O)(=O)c1ccc(CC(=O)Nc2nc(-c3ccccc3)c(Oc3ccc(Cl)cc3)s2)cc1
3. CCS(=O)(=O)c1ccc(CC(=O)Nc2nc(-c3cccc(C#N)c3)c(Oc3ccc(Cl)cc3C(F)(F)F)s2)cc1
4. CCS(=O)(=O)c1ccc(CC(=O)Nc2nc(-c3ccccc3)c(Oc3ccccc3OC)s2)cc1
5. CCS(=O)(=O)c1ccc(CC(=O)Nc2nc(-c3cccc(C#N)c3)c(Oc3ccc(C(F)(F)F)cc3Cl)s2)cc1
6. CCS(=O)(=O)c1ccc(CC(=O)Nc2nc(-c3cccc(Cl)c3)c(Oc3ccccc3)s2)cc1
7. CCS(=O)(=O)c1ccc(CC(=O)Nc2nc(-c3cccc(C#N)c3)c(Oc3ccccc3C(F)(F)F)s2)cc1

Response:
1. 5.70
2. 5.80
3. 6.80
4. 6.60
5. 6.40
6. 5.80
7. 6.60
